Molecular target: T1, PDZRN3_1, Q9UPQ7
T1 sequence (Q9UPQ7 244-349, limits assumed, looked up): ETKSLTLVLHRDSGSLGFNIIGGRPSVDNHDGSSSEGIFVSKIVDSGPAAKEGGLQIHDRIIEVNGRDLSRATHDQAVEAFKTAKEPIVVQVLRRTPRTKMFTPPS
Test: holdup assay
Set-up: key: below the threshold = too weak to quantify, mostly under pKd 3.1 to 4
Conditions: plain residues with an end cap or a label only (N-terminal biotin on a linker: ado-ado)
OBSERVABLE: pKd

// known answers, use as guide
PLSPEQPTKL [TRIM50, Q86XT4]
below the threshold
LPHGHSTTRV [NLGN4X, Q8N0W4]
3.78
PRAEAEDSFL [PDGFRB, P09619]
3.7
SSALYGESDL [ACTN2, P35609]
below the threshold
HSGYRLNDYV [CLDN14, O95500]
below the threshold

Given the binder FNSYSLTGYV [CLDN2, P57739] , what is its reported pKd? below the threshold
